system: NCI-H2722 (Mesothelioma); assay: Bliss excess, mean over the matrix (fraction); higher = more synergy;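 also: after 72 h of two-drug dosing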
The label depends only on Bliss excess: MET if it is at least -0.04, NOT MET if it is smaller.

Look over these answered cases.
Compound: CCc1c2c(nc3ccc(O)cc13)-c1cc3c(c(=O)n1C2)COC(=O)[C@]3(O)CC [SN-38] + CN(C)CCCOc1ccc(-c2ccc3ncc4c(c3c2)n(C2CCOCC2)c(=O)n4C)cn1 [AZD0156] (first compound max 0.3 µM, 7x7, partner max 1 µM)
Assayed target: NCI-H2722 (Mesothelioma);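 also: after 72 h of two-drug dosing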
Label value: MET
//
Compound: Cc1cc2ncnn2cc1Nc1ncc2c(n1)n(C1CCOCC1)c(=O)n2C [AZD7648] + CCN(CCO)CCCOc1ccc2c(Nc3cc(CC(=O)Nc4cccc(F)c4)[nH]n3)ncnc2c1 [AZD2811] (first compound max 10 µM, 7x7, partner max 1 µM)
Assayed target: NCI-H2722 (Mesothelioma);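 also: after 72 h of two-drug dosing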
Label value: MET
//
Compound: NC1(C(=O)N[C@@H](CCO)c2ccc(Cl)cc2)CCN(c2ncnc3[nH]ccc23)CC1 [Capivasertib] + CC(=O)c1c(C)c2cnc(Nc3ccc(N4CCNCC4)cn3)nc2n(C2CCCC2)c1=O [Palbociclib] (first compound max 10 µM, 7x7, partner max 10 µM)
Assayed target: NCI-H2722 (Mesothelioma);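 also: after 72 h of two-drug dosing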
Label value: NOT MET
//
Compound: COc1cccc(OCCCN)c1-c1cc(Nc2cnc(C#N)cn2)n[nH]1 [Prexasertib] + CCc1c2c(nc3ccc(O)cc13)-c1cc3c(c(=O)n1C2)COC(=O)[C@]3(O)CC [SN-38] (first compound max 1 µM, 7x7, partner max 0.3 µM)
Assayed target: NCI-H2722 (Mesothelioma);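 also: after 72 h of two-drug dosing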
Label value: NOT MET

Determine whether this compound has Bliss excess no lower than -0.04: NC1(C(=O)N[C@@H](CCO)c2ccc(Cl)cc2)CCN(c2ncnc3[nH]ccc23)CC1 [Capivasertib] + CC(C)n1c(=O)n(C)c2cnc3cc(F)c(-c4ccc(OCCCN5CCCCC5)nc4)cc3c21 [AZD1390] (first compound max 10 µM, 7x7, partner max 0.3 µM)
NOT MET

Determine whether this compound has Bliss excess no lower than -0.04: COc1cccc(OCCCN)c1-c1cc(Nc2cnc(C#N)cn2)n[nH]1 [Prexasertib] + O=C(c1cc(Cc2n[nH]c(=O)c3ccccc23)ccc1F)N1CCN(C(=O)C2CC2)CC1 [Olaparib] (first compound max 1 µM, 7x7, partner max 10 µM)
MET
